- test-summary: MTT cytotoxicity assay in HepDES19 cells
- Type: cell-based
- conditions: human
measurement-name: CC50 at 3 days (µM)
Field format: number, assumed µM, no unit text.

| compound | CC50 at 3 days [µM] |
| --- | --- |
| Cc1ccc(O)c(=O)c(O)c1 [#210] | 71 |

-- ask Given C/C(=N\c1ccccc1N)c1c(C)cc(=O)n(O)c1O [#208] , respond with its CC50 at 3 days.
-- reply 15

-- ask Look up CC50 at 3 days of CC(C)=CCc1ccc(=O)c(O)cc1C(C)C [#49] and report it.
-- reply 9

-- ask In one line, give reported CC50 at 3 days of the entry NCc1cccc(-c2ccc(Cc3cc(=O)n(O)c4ncccc34)cc2)c1 [Compound 153] .
-- reply 10

-- ask Provide CC50 at 3 days value for the following compound: Cc1cc(COc2ccc(Oc3ccc(Cl)cc3)cc2)n(O)c(=O)c1 [#211]
-- reply 30

-- ask For the compound O=c1cc(NCc2ccccc2)c2cccnc2n1O [#151] , report CC50 at 3 days.
-- reply 15

====

- test-summary: Mouse liver microsome assay
- Type: in vitro ADME
- conditions: mouse, microsomes, 1 μM compound, read-out: CL ‘hep
measurement-name: CLint scaled at 1 μM (mL/min/kg)
Report as a plain number; the unit mL/min/kg is understood.

-- ask Give the measured CLint scaled at 1 μM for Cc1cc(C2CCCCC2)n(O)c(=O)c1
-- reply 14

====

- test-summary: Mouse liver microsome assay
- Format: in vitro ADME
- conditions: mouse, microsomes, 1 μM compound, read-out: CL’int
measurement-name: CLint scaled at 1 μM (L/h/kg)
The answer is to be given in L/h/kg; state only the numeric part.

-- ask Assign CLint scaled at 1 μM to the following record: Cc1cc(C2CCCCC2)n(O)c(=O)c1
-- reply 1.02

====

- test-summary: Mouse liver microsome assay
- Assay type: in vitro ADME
- conditions: mouse, liver microsomes, 1 μM compound, read-out: CL’int
measurement-name: CLint scaled at 1 μM (mL/min/kg)
Please give a number only; it is taken to be in mL/min/kg.

-- ask Give the reported value of CLint scaled at 1 μM for this record: Cc1cc(CC(C)CC(C)(C)C)n(O)c(=O)c1 (stereo not shown)
-- reply 9
